Origin of measurements: ChEMBL document CHEMBL1138463

The following molecules each carry a recorded IC50 for Dihydroorotate dehydrogenase (quinone), mitochondrial (Homo sapiens).
Numbers only, in µM.

Past entries and their recorded results:
# smiles.data, IC50 (µM)
records = [
    ("N#C/C(C(=O)Nc1ccc(C(F)(F)F)cc1)=C(/O)C1CC1", 0.117),
    ("C/C(O)=C(\\C#N)C(=O)Nc1ccc(-c2ccccc2Cl)cc1", 0.13),
    ("C/C(O)=C(\\C#N)C(=O)Nc1ccc(-c2ccccc2)cc1", 0.09),
]

Kindly consider the entry below.
IC50 recorded for this molecule, CCOc1cccc(-c2ccc(NC(=O)/C(C#N)=C(/C)O)cc2)c1 , is 0.13
